// provenance: patent US20240245682A1

Biological target: human integrin αVβ6 (Homo sapiens, UniProt P06756+P18564)
Sequence (P06756 31-992 limits assumed): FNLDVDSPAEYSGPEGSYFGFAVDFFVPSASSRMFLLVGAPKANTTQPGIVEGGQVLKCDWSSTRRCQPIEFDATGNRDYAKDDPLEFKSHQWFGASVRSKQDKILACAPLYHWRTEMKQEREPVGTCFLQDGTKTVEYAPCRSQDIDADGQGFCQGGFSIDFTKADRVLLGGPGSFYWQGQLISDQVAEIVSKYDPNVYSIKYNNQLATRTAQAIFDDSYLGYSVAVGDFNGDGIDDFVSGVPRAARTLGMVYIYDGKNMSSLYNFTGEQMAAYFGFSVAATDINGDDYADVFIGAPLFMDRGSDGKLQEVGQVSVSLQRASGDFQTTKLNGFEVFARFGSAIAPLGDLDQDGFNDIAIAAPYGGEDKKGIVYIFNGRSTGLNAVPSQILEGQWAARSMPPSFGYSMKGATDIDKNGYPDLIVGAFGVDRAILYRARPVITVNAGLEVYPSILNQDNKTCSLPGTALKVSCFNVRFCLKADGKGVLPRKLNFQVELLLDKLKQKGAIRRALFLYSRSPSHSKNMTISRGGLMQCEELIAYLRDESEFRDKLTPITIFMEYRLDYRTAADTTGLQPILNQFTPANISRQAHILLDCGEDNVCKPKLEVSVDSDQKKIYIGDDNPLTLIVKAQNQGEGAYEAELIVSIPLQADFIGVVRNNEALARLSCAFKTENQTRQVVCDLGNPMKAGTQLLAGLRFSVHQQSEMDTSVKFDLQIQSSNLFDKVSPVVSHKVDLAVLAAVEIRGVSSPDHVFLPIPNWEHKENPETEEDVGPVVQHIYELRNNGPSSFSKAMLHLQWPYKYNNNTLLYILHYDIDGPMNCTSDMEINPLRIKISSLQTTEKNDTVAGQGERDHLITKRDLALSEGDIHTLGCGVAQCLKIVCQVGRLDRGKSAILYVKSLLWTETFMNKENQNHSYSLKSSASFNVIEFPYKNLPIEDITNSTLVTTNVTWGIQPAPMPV
Sequence (P18564 22-707 limits assumed): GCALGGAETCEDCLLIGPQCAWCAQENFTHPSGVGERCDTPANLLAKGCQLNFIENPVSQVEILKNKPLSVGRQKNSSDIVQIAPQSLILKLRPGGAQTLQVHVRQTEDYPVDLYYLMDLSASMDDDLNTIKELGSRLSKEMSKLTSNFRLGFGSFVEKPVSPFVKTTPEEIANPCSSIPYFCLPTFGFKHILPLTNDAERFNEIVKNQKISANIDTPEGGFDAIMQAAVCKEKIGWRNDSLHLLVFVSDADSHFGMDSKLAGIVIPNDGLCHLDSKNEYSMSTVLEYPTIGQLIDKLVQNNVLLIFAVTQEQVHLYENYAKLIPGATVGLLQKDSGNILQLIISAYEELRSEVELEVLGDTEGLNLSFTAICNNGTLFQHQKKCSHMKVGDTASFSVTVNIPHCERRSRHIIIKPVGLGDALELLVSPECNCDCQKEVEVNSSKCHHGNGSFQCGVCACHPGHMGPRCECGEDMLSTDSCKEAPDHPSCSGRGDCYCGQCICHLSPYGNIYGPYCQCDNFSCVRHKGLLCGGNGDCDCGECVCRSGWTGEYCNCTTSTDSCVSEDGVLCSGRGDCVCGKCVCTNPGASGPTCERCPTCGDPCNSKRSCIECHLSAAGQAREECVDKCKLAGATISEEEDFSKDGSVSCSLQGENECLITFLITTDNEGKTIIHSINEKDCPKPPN
Test: AlphaScreen proximity-based integrin binding assay with TGF-b1 LAP
Details: values given as ranges
PARAMETER_MEASURED: IC50

MOLECULE	PARAMETER_MEASURED	OBSERVED_RESULT
Cc1cnc(C2(C(=O)N[C@@H](CCOCCCCc3ccc4c(n3)NCCC4)C(=O)O)CC2)c(Cl)c1 [Compound 36]	IC50	≥ 500 nM

Consider the molecule O=C(O)[C@H](CCOCCCCc1ccc2c(n1)NCCC2)NC(=O)C1(C(F)(F)F)CCCCC1 [Compound 84] and give its measured IC50. 250 to 500 nM

Consider the molecule N#Cc1cccnc1C1(C(=O)N[C@@H](CCOCCCCc2ccc3c(n2)NCCC3)C(=O)O)CC1 [Compound 32] and give its measured IC50. ≥ 500 nM
